Tgt: GluA2 (Rattus norvegicus)
Construct: expressed in transfected cells; host or cells: HEK293T (HEK293) cells, transient co-transfection with a separate EGFP vector
Sequence (P19491 22-883 isoform P19491-2 limits assumed): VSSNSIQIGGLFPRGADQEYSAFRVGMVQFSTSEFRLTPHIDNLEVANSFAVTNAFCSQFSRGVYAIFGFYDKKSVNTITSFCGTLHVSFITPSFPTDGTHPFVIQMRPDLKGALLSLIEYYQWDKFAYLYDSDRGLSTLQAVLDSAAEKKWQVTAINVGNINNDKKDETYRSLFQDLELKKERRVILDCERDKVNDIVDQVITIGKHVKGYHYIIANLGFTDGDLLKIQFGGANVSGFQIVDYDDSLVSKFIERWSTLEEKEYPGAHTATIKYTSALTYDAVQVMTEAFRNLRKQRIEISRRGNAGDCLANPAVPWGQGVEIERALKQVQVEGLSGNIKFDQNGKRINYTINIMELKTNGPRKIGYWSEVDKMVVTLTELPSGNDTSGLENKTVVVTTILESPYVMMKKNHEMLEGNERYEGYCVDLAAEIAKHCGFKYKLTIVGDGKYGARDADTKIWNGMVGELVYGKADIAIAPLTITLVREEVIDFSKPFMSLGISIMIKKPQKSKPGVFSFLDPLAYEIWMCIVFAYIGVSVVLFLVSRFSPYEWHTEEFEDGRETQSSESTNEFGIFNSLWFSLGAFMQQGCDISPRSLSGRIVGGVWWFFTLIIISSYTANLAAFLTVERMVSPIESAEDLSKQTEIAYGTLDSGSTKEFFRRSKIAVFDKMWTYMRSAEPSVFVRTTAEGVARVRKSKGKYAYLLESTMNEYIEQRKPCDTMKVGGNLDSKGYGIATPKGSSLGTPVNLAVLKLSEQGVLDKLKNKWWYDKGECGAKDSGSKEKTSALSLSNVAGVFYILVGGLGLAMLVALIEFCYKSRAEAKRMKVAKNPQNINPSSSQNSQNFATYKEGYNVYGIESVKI
Assay Remarks: Whole-cell patch clamp recordings of homomeric GluA2 AMPA receptor currents and kinetics in transfected HEK293t cells
Assay type: cell-based
Reported Conditions: glutamate alone after the compound, mean ± SD, n = 10
Readout: Amplitude, applying glutamate alone after compound (pA)
One number for each entry, in pA.

Answered examples (5):
In [3]: df
Out[3]:
                           molecular_string  measurement_unit  readout_value
0  COc1ccc(NC(=O)c2c(-c3c(Cl)cccc3Cl)noc2C)cc1OC                pA           1202
1  COc1ccccc1Oc1ccc(NC(=O)c2c(-c3c(Cl)cccc3Cl)noc2C)cc1                pA           1231
2  Cc1onc(-c2c(F)cccc2Cl)c1C(=O)Nc1ccc(OC(F)(F)F)cc1                pA           1233
3  CSc1ccc(NC(=O)c2c(-c3c(Cl)cccc3Cl)noc2C)cc1                pA           1231
4  Cc1onc(-c2c(Cl)cccc2Cl)c1C(=O)Nc1ccc(C(C)(C)C)cc1                pA           1237

Quick batch: Amplitude, applying glutamate alone after compound for everything below.
1. Cc1onc(-c2c(Cl)cccc2Cl)c1C(=O)Nc1ccccc1
2. Cc1onc(-c2c(Cl)cccc2Cl)c1C(=O)Nc1ccc(OC(F)(F)F)cc1
3. COc1ccc(NC(=O)c2c(-c3c(Cl)cccc3Cl)noc2C)c(OC)c1
4. COc1cc(NC(=O)c2c(-c3c(Cl)cccc3Cl)noc2C)c(OC)cc1Cl
5. COc1cc(NC(=O)c2c(-c3c(Cl)cccc3Cl)noc2C)cc(OC)c1OC
6. Cc1onc(-c2c(Cl)cccc2Cl)c1C(=O)Nc1ccc(-c2ccccc2)cc1
7. COc1cc(NC(=O)c2c(-c3c(Cl)cccc3Cl)noc2C)cc(OC)c1

1: 1235; 2: 1249; 3: 1198; 4: 1213; 5: 1220; 6: 1226; 7: 1216

* * *

Tgt: GluA2 (Rattus norvegicus)
Construct: expressed in transfected cells; host or cells: HEK293T (HEK293) cells, transient co-transfection with a separate EGFP vector
Assay Remarks: Whole-cell patch clamp recordings of homomeric GluA2 AMPA receptor currents and kinetics in transfected HEK293t cells
Format: cell-based
Reported Conditions: concentration–response fit, read-out: Log IC50 (converted)
In plain terms, low IC50, meaning strictly below 6 µM, gives criterion met, and everything else gives criterion not met.

Observe how each entry below is paired with its result.
                                   compound        group_label
0  COc1ccc(NC(=O)c2c(-c3c(Cl)cccc3Cl)noc2C)cc1OC [CIC-6]      criterion met
1  COc1cc(NC(=O)c2c(-c3c(Cl)cccc3Cl)noc2C)c(OC)cc1Cl [CIC-2]      criterion met
2  Cc1onc(-c2c(Cl)cccc2Cl)c1C(=O)Nc1ccc(-c2ccccc2)cc1 [CIC-9]  criterion not met
3  Cc1onc(-c2c(Cl)cccc2Cl)c1C(=O)Nc1ccc(C(C)(C)C)cc1 [CIC-12]  criterion not met
4  Cc1onc(-c2c(Cl)cccc2Cl)c1C(=O)Nc1ccc(OC(F)(F)F)cc1 [CIC-10]  criterion not met
5  CSc1ccc(NC(=O)c2c(-c3c(Cl)cccc3Cl)noc2C)cc1 [CIC-1]      criterion met
6  Cc1onc(-c2c(F)cccc2Cl)c1C(=O)Nc1ccc(OC(F)(F)F)cc1 [CIC-11]  criterion not met
7  COc1ccc(NC(=O)c2c(-c3c(Cl)cccc3Cl)noc2C)c(OC)c1 [CIC-5]      criterion met
8  COc1cc(NC(=O)c2c(-c3c(Cl)cccc3Cl)noc2C)cc(OC)c1OC [CIC-4]      criterion met

# TODO verify IC50 < 6 µM strictly for this compound: COc1cc(NC(=O)c2c(-c3c(Cl)cccc3Cl)noc2C)cc(OC)c1 [CIC-3] criterion met
